target: Endoplasmic reticulum aminopeptidase 1 (Homo sapiens); test: ERAP1 aminopeptidase inhibitors, dose response, biochemical, cherry-pick, set 2, plate reader (AID 743314); conditions: Recombinant ERAP1, Leu-AMC fluorescence, 60 min; series mostly up to 11 µM
Measured potencies and affinities stand elsewhere. Records with an inconclusive call do not appear. Active and inactive are the calls of the source.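 How the source made its calls: active means fitted half-maximal concentration no higher than twice the top tested dose, in every repeat run; inconclusive means repeat runs disagree, poor fit, or flat partial inhibition; inactive means the rest.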
Measured Endpoint: activity change, negative = inhibition

See these solved cases before continuing.
CN(C)C(=O)[C@@H]1[C@@H](CO)[C@@H]2Cn3c(ccc(/C=C/c4ccccc4)c3=O)[C@@H]2N1C(=O)c1cnccn1 :: inactive
COc1cccc(CN(C)Cc2cc(=O)oc3cc(O)c(Cl)cc23)c1 :: inactive
O=C(c1ccc(F)cc1)N1CC2(C1)[C@@H](c1ccccc1)[C@@H](CO)N2Cc1ccccn1 :: inactive
C[C@H]1CCCCO[C@@H](CN(C)C)[C@@H](C)CN([C@@H](C)CO)C(=O)c2cc(NS(=O)(=O)c3ccc(Cl)cc3)ccc2O1 :: inactive
O=C(CNC(=O)OCc1ccccc1)Nc1ccc(F)cc1 :: inactive
Cc1ccc(NC(=O)C2CCN(C(=O)c3cccs3)CC2)c(C)c1 :: inactive

Could you tell me which activity change, negative = inhibition is on file for C[C@@H]1CN([C@@H](C)CO)C(=O)c2cc(NC(=O)CCN3CCOCC3)ccc2O[C@@H]1CN(C)S(=O)(=O)c1ccccc1 ? inactive

Please report the recorded activity change, negative = inhibition for COc1ccc2c3c([nH]c2c1)[C@@H](CO)N(Cc1ccccc1)CC31CN(C)C1 . inactive

Reported activity change, negative = inhibition, compound C[C@@H]1CCCCO[C@H](CN(C)S(=O)(=O)c2ccccc2)[C@H](C)CN([C@H](C)CO)C(=O)c2cc(NS(=O)(=O)c3ccc(Cl)cc3)ccc2O1 : ____ inactive
